Cited source for all entries: patent US8937064B2

Molecular target: JAK3 (Homo sapiens, UniProt P52333)
Sequence (P52333 1-1124): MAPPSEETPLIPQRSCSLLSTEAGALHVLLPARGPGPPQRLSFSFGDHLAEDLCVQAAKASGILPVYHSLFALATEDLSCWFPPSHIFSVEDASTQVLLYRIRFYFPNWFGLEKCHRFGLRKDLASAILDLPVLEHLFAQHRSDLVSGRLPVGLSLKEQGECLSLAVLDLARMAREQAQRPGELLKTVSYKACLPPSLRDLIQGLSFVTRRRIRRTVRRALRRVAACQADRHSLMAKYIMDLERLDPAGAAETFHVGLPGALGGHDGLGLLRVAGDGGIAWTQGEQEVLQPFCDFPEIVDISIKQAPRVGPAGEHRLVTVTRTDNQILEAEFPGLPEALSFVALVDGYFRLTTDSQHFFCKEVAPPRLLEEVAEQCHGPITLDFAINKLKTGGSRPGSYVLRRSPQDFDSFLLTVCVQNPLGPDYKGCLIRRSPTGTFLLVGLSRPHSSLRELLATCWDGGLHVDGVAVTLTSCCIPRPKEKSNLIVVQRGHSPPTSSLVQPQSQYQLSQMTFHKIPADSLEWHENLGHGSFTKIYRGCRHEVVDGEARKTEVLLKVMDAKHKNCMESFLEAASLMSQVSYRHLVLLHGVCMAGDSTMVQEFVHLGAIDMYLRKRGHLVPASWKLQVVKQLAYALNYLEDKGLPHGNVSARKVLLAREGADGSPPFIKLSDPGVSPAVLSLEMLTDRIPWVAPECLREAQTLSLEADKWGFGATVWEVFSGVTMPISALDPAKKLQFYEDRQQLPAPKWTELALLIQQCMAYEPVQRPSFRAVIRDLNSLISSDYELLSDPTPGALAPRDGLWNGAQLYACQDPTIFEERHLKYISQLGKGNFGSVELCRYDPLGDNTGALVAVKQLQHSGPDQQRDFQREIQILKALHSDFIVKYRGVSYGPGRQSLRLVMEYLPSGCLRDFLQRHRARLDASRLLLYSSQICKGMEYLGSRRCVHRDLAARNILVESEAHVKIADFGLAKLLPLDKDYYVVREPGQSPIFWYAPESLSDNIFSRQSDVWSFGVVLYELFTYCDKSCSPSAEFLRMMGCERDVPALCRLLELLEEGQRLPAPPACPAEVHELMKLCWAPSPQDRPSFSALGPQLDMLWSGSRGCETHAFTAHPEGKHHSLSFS
The entries below come with measured Ki values attached.

Can you share its Ki? I mean this compound: CCC[C@@H](Nc1cc(-c2c(N)nn3cccnc23)ncn1)c1ccc(F)c(F)c1 100 to 500 nM

Others:
Requested field: Ki. Item: C[C@H](Nc1cc(-c2c(N)nn3cccnc23)nc(N2CCOCC2)n1)c1ccc(F)cc1F 10 to 100 nM

Request the reported Ki associated with CC[C@H](Nc1cc(-c2c(N)nn3cccnc23)ncn1)c1ccc(F)cc1Cl 10 to 100 nM

* * *

Each entry below carries its reported pKi.
Target: JAK3 (Homo sapiens)
Sequence (P52333 1-1124): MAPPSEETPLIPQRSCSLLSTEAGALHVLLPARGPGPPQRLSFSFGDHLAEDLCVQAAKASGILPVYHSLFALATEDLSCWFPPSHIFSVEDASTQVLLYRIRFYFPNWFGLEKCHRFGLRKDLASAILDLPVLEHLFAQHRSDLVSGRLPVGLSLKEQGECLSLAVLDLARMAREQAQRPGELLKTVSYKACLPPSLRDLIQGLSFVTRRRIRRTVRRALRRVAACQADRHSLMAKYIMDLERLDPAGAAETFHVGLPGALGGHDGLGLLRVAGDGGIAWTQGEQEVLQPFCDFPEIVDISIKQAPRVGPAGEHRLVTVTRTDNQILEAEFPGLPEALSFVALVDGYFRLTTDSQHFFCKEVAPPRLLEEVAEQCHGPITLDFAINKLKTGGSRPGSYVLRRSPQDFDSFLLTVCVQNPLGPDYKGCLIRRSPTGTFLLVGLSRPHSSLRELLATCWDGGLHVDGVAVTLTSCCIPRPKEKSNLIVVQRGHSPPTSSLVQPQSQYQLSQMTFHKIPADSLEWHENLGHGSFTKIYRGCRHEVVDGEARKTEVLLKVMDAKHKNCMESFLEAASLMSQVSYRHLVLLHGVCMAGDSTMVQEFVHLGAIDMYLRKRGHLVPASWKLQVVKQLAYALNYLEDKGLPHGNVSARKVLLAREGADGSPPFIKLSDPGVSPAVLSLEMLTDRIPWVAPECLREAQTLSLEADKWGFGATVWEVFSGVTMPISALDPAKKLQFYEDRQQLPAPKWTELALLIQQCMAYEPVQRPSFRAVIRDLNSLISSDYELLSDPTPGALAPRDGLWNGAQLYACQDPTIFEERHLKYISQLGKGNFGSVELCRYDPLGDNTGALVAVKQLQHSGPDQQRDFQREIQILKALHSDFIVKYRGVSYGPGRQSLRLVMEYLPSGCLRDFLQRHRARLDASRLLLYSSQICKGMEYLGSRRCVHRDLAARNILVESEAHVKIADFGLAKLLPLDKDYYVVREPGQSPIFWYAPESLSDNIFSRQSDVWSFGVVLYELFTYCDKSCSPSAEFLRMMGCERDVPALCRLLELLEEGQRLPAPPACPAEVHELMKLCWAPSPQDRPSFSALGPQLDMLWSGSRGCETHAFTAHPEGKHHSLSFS
pKi: −log10 of the molar value.

Can you share its pKi? I mean this compound: C[C@H](Nc1cc(-c2c(N)nn3ccc(C(F)(F)F)nc23)ncn1)c1ccc(F)cc1 7.00 to 8.00

Entry Nc1nn2cccnc2c1-c1cc(N[C@H]2CCCc3ccccc32)ncn1 : reported pKi = ? 6.30 to 7.00

Further cases:
What does the data say about its pKi? Entry: CC(C)[C@H](Nc1cc(-c2c(N)nn3cccnc23)nc(N2CCOCC2)n1)c1ccc(F)cc1F 6.30 to 7.00

Name the reported pKi value associated with the compound C[C@H](Nc1cc(-c2c(N)nn3cccnc23)nc(C2CC2)n1)c1ccc(F)cc1 7.00 to 8.00

Recorded pKi for C[C@H](Nc1cc(-c2cnn3cccnc23)nc(OCC2CCCN2)n1)c1ccc(F)cc1F (some centres unmarked) , please? 6.30 to 7.00
